# Experimental System: UniProt:P07099
# Sequence (P07099 whole entry): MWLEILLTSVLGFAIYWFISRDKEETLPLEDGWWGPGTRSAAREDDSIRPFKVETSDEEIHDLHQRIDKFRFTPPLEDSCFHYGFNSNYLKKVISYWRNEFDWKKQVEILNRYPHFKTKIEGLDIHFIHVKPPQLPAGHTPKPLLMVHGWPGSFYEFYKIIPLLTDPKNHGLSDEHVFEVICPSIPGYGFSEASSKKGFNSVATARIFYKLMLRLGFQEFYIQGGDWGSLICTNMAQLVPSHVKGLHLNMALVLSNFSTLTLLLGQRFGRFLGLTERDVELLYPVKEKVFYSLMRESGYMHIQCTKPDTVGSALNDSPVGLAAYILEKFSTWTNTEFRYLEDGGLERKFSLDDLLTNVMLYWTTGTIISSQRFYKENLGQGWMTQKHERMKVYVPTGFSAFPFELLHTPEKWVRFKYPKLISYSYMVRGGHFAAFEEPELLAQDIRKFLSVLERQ
pIC50: −log10 of the molar value.
Assay Endpoint: pIC50

[
  {
    "Compound": "O=C(O)CCC1(c2cccc(C(F)(F)F)c2)CCCN(C(=O)Nc2ccc(Cl)cc2)C1 (stereo unspecified)",
    "Experimental System": "UniProt:P07099",
    "Assay Endpoint": "pIC50",
    "Result": "< 4.00"
  },
  {
    "Compound": "O=C(O)CCC1(c2ccncc2)CCCN(C(=O)Nc2ccc(Cl)cc2)C1 (stereo unspecified)",
    "Experimental System": "UniProt:P07099",
    "Assay Endpoint": "pIC50",
    "Result": "< 4.00"
  },
  {
    "Compound": "O=C(O)CCC1(c2ccc(C(F)(F)F)cc2)CCCN(C(=O)Nc2ccc(Cl)cc2)C1 (stereo unspecified)",
    "Experimental System": "UniProt:P07099",
    "Assay Endpoint": "pIC50",
    "Result": "< 4.00"
  },
  {
    "Compound": "CC1(c2ccccc2)CCCN(C(=O)NCc2ccc(-c3ccccn3)cc2)C1 (stereo unspecified)",
    "Experimental System": "UniProt:P07099",
    "Assay Endpoint": "pIC50",
    "Result": 4.33
  },
  {
    "Compound": "O=C(Nc1ccc(Cl)cc1)N1CCCC(CCCO)(c2ccccc2)C1 (stereo unspecified)",
    "Experimental System": "UniProt:P07099",
    "Assay Endpoint": "pIC50",
    "Result": "< 4.00"
  },
  {
    "Compound": "NC(=O)CCC1(c2ccccc2)CCCN(C(=O)Nc2ccc(Cl)cc2)C1 (stereo unspecified)",
    "Experimental System": "UniProt:P07099",
    "Assay Endpoint": "pIC50",
    "Result": "< 4.00"
  }
]

----------
# Experimental System: Bifunctional epoxide hydrolase 2 (Homo sapiens)
# Sequence (P34913 whole entry): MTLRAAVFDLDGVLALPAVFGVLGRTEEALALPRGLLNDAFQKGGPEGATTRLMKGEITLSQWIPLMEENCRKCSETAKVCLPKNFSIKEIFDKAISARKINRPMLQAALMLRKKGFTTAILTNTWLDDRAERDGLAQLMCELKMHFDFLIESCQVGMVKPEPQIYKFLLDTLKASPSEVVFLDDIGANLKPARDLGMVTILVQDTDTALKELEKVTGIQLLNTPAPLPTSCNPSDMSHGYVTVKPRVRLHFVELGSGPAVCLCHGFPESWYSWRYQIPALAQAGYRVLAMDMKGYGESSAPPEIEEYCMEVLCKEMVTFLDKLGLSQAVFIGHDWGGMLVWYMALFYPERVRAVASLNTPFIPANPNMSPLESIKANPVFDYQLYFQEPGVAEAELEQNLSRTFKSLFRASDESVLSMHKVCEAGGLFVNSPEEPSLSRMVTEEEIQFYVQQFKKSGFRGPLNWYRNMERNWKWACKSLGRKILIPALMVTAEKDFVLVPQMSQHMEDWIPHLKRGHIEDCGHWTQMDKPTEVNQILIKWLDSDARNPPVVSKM
# Test Summary: Inhibition of human soluble epoxide hydrolase
Assay Endpoint: log10 of IC50 (log10 of the value in nM)

[
  {
    "Molecule": "CC1(c2ccccc2)CCCN(C(=O)NCc2ccc(-c3ccccn3)cc2)C1 (stereo not drawn)",
    "Assay Endpoint": "log10 of IC50",
    "Recorded Number": 0.00
  },
  {
    "Molecule": "O=C(Nc1ccc(Cl)cc1)N1CCCC(CCO)(c2ccccc2)C1 (stereo not drawn)",
    "Assay Endpoint": "log10 of IC50",
    "Recorded Number": 0.00
  },
  {
    "Molecule": "CCN(CC)C(=O)CCC1(c2ccccc2)CCCN(C(=O)Nc2ccc(Cl)cc2)C1 (stereo not drawn)",
    "Assay Endpoint": "log10 of IC50",
    "Recorded Number": 0.48
  },
  {
    "Molecule": "O=C(O)CCC1(c2ccccn2)CCCN(C(=O)Nc2ccc(Cl)cc2)C1 (stereo not drawn)",
    "Assay Endpoint": "log10 of IC50",
    "Recorded Number": 1.28
  },
  {
    "Molecule": "CC1(c2ccccc2)CCCN(C(=O)Nc2ccncc2)C1 (stereo not drawn)",
    "Assay Endpoint": "log10 of IC50",
    "Recorded Number": 2.74
  },
  {
    "Molecule": "O=C(O)CCC1(c2ccccc2)CCCN(C(=O)Nc2ccc(Cl)cc2)C1 (stereo in doubt)",
    "Assay Endpoint": "log10 of IC50",
    "Recorded Number": 0.70
  },
  {
    "Molecule": "CC1(c2ccccc2)CCCN(C(=O)NCCc2ccc(Cl)cc2)C1 (stereo not drawn)",
    "Assay Endpoint": "log10 of IC50",
    "Recorded Number": 0.00
  },
  {
    "Molecule": "CC1(c2ccccc2)CCCN(C(=O)NCc2ccc(-c3ccccc3C(F)(F)F)cc2)C1 (stereo not drawn)",
    "Assay Endpoint": "log10 of IC50",
    "Recorded Number": 0.90
  },
  {
    "Molecule": "CC1(c2ccccc2)CCCN(C(=O)Nc2ccc(-c3ccccc3)cc2)C1 (stereo not drawn)",
    "Assay Endpoint": "log10 of IC50",
    "Recorded Number": 0.85
  },
  {
    "Molecule": "O=C(O)CCC1(c2ccc(C(F)(F)F)cc2)CCCN(C(=O)Nc2ccc(Cl)cc2)C1 (stereo not drawn)",
    "Assay Endpoint": "log10 of IC50",
    "Recorded Number": 0.70
  },
  {
    "Molecule": "O=C(Nc1ccc(Cl)cc1)N1CCCC(CCc2nn[nH]n2)(c2ccccc2)C1 (stereo not drawn)",
    "Assay Endpoint": "log10 of IC50",
    "Recorded Number": 0.70
  },
  {
    "Molecule": "O=C(O)CCC1(c2cccnc2)CCCN(C(=O)Nc2ccc(Cl)cc2)C1 (stereo not drawn)",
    "Assay Endpoint": "log10 of IC50",
    "Recorded Number": 1.45
  },
  {
    "Molecule": "CC1(c2ccccc2)CCCN(C(=O)NCc2ccc(-c3cccc(Cl)c3)cc2)C1 (stereo not drawn)",
    "Assay Endpoint": "log10 of IC50",
    "Recorded Number": 1.15
  }
]

----------
# Experimental System: Bifunctional epoxide hydrolase 2 (Rattus norvegicus)
# Sequence (P80299 whole entry): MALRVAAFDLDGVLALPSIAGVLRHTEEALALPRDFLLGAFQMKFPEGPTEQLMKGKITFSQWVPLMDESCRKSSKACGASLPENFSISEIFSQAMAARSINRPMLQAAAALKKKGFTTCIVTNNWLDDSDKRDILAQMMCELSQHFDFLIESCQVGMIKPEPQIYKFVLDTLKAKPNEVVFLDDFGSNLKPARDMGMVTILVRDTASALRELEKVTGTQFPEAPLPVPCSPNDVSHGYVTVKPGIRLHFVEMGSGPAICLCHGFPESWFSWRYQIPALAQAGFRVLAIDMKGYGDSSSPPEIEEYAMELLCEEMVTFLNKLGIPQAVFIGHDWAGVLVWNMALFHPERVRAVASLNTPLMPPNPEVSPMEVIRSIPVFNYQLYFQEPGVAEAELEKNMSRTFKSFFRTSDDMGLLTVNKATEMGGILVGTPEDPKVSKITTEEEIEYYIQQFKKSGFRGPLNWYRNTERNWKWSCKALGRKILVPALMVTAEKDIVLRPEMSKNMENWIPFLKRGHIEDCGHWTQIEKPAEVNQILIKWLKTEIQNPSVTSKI
# Test Summary: Inhibition of rat soluble epoxide hydrolase
Assay Endpoint: IC50 (nM)

[
  {
    "Compound": "O=C(Nc1ccc(Cl)cc1)N1CCCC(CCc2nn[nH]n2)(c2ccccc2)C1 (stereo unspecified)",
    "Assay Endpoint": "IC50",
    "Recorded Number": 59
  },
  {
    "Compound": "CC1(c2ccccc2)CCCN(C(=O)Nc2ccc(-c3ccccc3)cc2)C1 (stereo unspecified)",
    "Assay Endpoint": "IC50",
    "Recorded Number": 6
  },
  {
    "Compound": "O=C(O)CCCC1(c2ccccc2)CCCN(C(=O)Nc2ccc(Cl)cc2)C1 (stereo unspecified)",
    "Assay Endpoint": "IC50",
    "Recorded Number": 176
  },
  {
    "Compound": "CN(C)CCC1(c2ccccc2)CCCN(C(=O)Nc2ccc(Cl)cc2)C1 (stereo unspecified)",
    "Assay Endpoint": "IC50",
    "Recorded Number": 119
  },
  {
    "Compound": "CNC(=O)CCC1(c2ccccc2)CCCN(C(=O)Nc2ccc(Cl)cc2)C1 (stereo unspecified)",
    "Assay Endpoint": "IC50",
    "Recorded Number": 32
  },
  {
    "Compound": "O=C(O)CCC1(c2cccnc2)CCCN(C(=O)Nc2ccc(Cl)cc2)C1 (stereo unspecified)",
    "Assay Endpoint": "IC50",
    "Recorded Number": 331
  },
  {
    "Compound": "O=C(O)CCC1(c2ccc(C(F)(F)F)cc2)CCCN(C(=O)Nc2ccc(Cl)cc2)C1 (stereo unspecified)",
    "Assay Endpoint": "IC50",
    "Recorded Number": 120
  },
  {
    "Compound": "CC1(c2ccccc2)CCCN(C(=O)NCc2ccc(-c3ccccc3C(F)(F)F)cc2)C1 (stereo unspecified)",
    "Assay Endpoint": "IC50",
    "Recorded Number": 11
  },
  {
    "Compound": "CC1(c2ccccc2)CCCN(C(=O)NCc2ccc(-c3ccc4[nH]ccc4c3)cc2)C1 (stereo unspecified)",
    "Assay Endpoint": "IC50",
    "Recorded Number": 6
  },
  {
    "Compound": "O=C(O)CC1(c2ccccc2)CCCN(C(=O)Nc2ccc(Cl)cc2)C1 (stereo unspecified)",
    "Assay Endpoint": "IC50",
    "Recorded Number": 398
  },
  {
    "Compound": "CC1(c2ccccc2)CCCN(C(=O)NCc2ccc(Cl)cc2Cl)C1 (stereo unspecified)",
    "Assay Endpoint": "IC50",
    "Recorded Number": 3
  },
  {
    "Compound": "CC1(c2ccccc2)CCCN(C(=O)NCc2ccc(-c3ccccn3)cc2)C1 (stereo unspecified)",
    "Assay Endpoint": "IC50",
    "Recorded Number": 3
  },
  {
    "Compound": "CC1(c2ccccc2)CCCN(C(=O)Nc2ccc(Cl)cc2)C1 (stereo unspecified)",
    "Assay Endpoint": "IC50",
    "Recorded Number": 5
  },
  {
    "Compound": "CC1(c2ccccc2)CCCN(C(=O)N[C@H]2C[C@@H]2c2ccccc2)C1 (stereo partly specified)",
    "Assay Endpoint": "IC50",
    "Recorded Number": 4
  },
  {
    "Compound": "O=C(CCC1(c2ccccc2)CCCN(C(=O)Nc2ccc(Cl)cc2)C1)N1CCOCC1 (stereo unspecified)",
    "Assay Endpoint": "IC50",
    "Recorded Number": 100
  },
  {
    "Compound": "O=C(O)CCC1(c2ccncc2)CCCN(C(=O)Nc2ccc(Cl)cc2)C1 (stereo unspecified)",
    "Assay Endpoint": "IC50",
    "Recorded Number": 467
  },
  {
    "Compound": "O=C(CCC1(c2ccccc2)CCCN(C(=O)Nc2ccc(Cl)cc2)C1)Nc1nn[nH]n1 (stereo unspecified)",
    "Assay Endpoint": "IC50",
    "Recorded Number": 34
  },
  {
    "Compound": "O=C(O)CCC1(c2ccc(-c3ccccc3)cc2)CCCN(C(=O)Nc2ccc(OC(F)(F)F)cc2)C1 (stereo unspecified)",
    "Assay Endpoint": "IC50",
    "Recorded Number": 413
  },
  {
    "Compound": "CC1(c2ccccc2)CCCN(C(=O)NCCc2ccc3nccnc3c2)C1 (stereo unspecified)",
    "Assay Endpoint": "IC50",
    "Recorded Number": 19
  },
  {
    "Compound": "CC1(c2ccccc2)CCCN(C(=O)Nc2ccncc2)C1 (stereo unspecified)",
    "Assay Endpoint": "IC50",
    "Recorded Number": 349
  },
  {
    "Compound": "O=C(Nc1ccc(Cl)cc1)N1CCCC(CCO)(c2ccccc2)C1 (stereo unspecified)",
    "Assay Endpoint": "IC50",
    "Recorded Number": 15
  }
]
